target: Aβ40 (H6A, H13A, and H14A) triple-mutant, Aβ40 (NoHis) (Homo sapiens, UniProt P05067, H677A/H684A/H685A); construct: the Aβ40 (H6A, H13A, and H14A) triple-mutant; purchased AlexoTech AB (Umeå, Sweden); host or cells: recombinant; assay: Binding affinity via Tyr10 fluorescence quenching, Aβ40 (NoHis) mutant; conditions: pH 5.1, 20 mM MES, 20 μM Aβ40 (NoHis); three replicates; read-out: KD^App, average
Sequence (P05067 672-711 H677A/H684A/H685A): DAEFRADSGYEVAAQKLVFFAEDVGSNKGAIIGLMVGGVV
endpointLabel: Kd (µM)
A number alone suffices; assume µM.

Kindly note the recorded Kd for CC(=O)[O-].CC(=O)[O-].[O]=[U+2]=[O] [uranyl ions, uranyl acetate] , which is 3

----------
biological target: Aβ40 (H6A, H13A, and H14A) triple-mutant, Aβ40 (NoHis) (Homo sapiens, UniProt P05067, H677A/H684A/H685A); construct: the Aβ40 (H6A, H13A, and H14A) triple-mutant; purchased AlexoTech AB (Umeå, Sweden); host or cells: recombinant; assay: Binding affinity via Tyr10 fluorescence quenching, Aβ40 (NoHis) mutant; conditions: pH 7.3, 20 mM MES, 20 μM Aβ40 (NoHis); three replicates; read-out: KD^App, average
endpointLabel: pKd
Recall that pKd is obtained by taking minus log10 of the concentration measured in molar.

Kindly note the recorded pKd for CC(=O)[O-].CC(=O)[O-].[O]=[U+2]=[O] [uranyl ions, uranyl acetate] , which is 4.12

----------
target: Aβ40 peptide (Homo sapiens, UniProt P05067); construct: namely, the Aβ40 peptide and the Aβ40 (H6A, H13A, and H14A) triple-mutant; purchased AlexoTech AB (Umeå, Sweden); host or cells: recombinant; assay: Binding affinity via Tyr10 fluorescence quenching, Aβ40; conditions: pH 5.1, 20 mM MES, 20 μM Aβ40; three replicates; read-out: KD^App, average
Sequence (P05067 672-711 limits assumed): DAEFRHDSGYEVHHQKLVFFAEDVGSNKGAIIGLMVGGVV
endpointLabel: pKd
Recall that pKd is obtained by taking minus log10 of the concentration measured in molar.

Kindly note the recorded pKd for CC(=O)[O-].CC(=O)[O-].[O]=[U+2]=[O] [uranyl ions, uranyl acetate] , which is 4.79

----------
biological target: Aβ40 (H6A, H13A, and H14A) triple-mutant, Aβ40 (NoHis) (Homo sapiens, UniProt P05067, H677A/H684A/H685A); construct: the Aβ40 (H6A, H13A, and H14A) triple-mutant; purchased AlexoTech AB (Umeå, Sweden); host or cells: recombinant; experiment: Binding affinity via Tyr10 fluorescence quenching, Aβ40 (NoHis) mutant; details: pH 7.3 + 50 mM SDS, 20 μM Aβ40 (NoHis); three replicates; read-out: KD^App, average
endpointLabel: Kd (µM)
A number alone suffices; assume µM.

Kindly note the recorded Kd for CC(=O)[O-].CC(=O)[O-].[O]=[U+2]=[O] [uranyl ions, uranyl acetate] , which is 120
